- Measurement Target: atypical chemokine receptor ACKR3 (formerly CXCR7) (human) (UniProt P25106)
- Sequence (P25106 whole entry): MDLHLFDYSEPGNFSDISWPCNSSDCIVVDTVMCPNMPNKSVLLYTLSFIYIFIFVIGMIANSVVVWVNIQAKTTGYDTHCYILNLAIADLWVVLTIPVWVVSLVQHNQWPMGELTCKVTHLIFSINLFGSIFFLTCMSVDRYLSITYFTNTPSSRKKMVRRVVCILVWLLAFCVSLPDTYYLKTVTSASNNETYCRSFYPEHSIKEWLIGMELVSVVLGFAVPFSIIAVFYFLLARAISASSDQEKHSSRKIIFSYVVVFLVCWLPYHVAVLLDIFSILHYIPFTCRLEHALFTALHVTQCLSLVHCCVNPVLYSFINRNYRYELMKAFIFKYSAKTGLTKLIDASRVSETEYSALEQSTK
No end group written: not given here.
Measured Property: Supplementary Table 4: EC50 of β-arrestin-1 recruitment to ACKR3, U87 cells (µM)
Give bare numbers, in µM.

Examples with answers:
{"Binder": "YGGFMARV-NH2 [adrenorphin-derived peptide YGGFMARV]", "Scale Unit": "µM", "Reported": 5}
{"Binder": "YGGFMRRK-NH2 [adrenorphin-derived peptide YGGFMRRK]", "Scale Unit": "µM", "Reported": 0.037}

Working through the 5 binders below one at a time, give Supplementary Table 4: EC50 of β-arrestin-1 recruitment to ACKR3, U87 cells for each.
1. YGGFARRV-NH2 [adrenorphin-derived peptide YGGFARRV]
2. YAGFMRRV-NH2 [adrenorphin-derived peptide YAGFMRRV]
3. YGGFQRRV-NH2 [adrenorphin-derived peptide YGGFQRRV]
4. YGGFFRRV-NH2 [adrenorphin-derived peptide YGGFFRRV]
5. YGGFLRRV-NH2 [adrenorphin-derived peptide YGGFLRRV]

5
0.611
5
1.54
0.684

For every item below, please supply its Supplementary Table 4: EC50 of β-arrestin-1 recruitment to ACKR3, U87 cells.
1. YGGFMKRV-NH2 [adrenorphin-derived peptide YGGFMKRV]
2. YGGFKRRV-NH2 [adrenorphin-derived peptide YGGFKRRV]
3. YGGFMRRI-NH2 [adrenorphin-derived peptide YGGFMRRI]

[5, 10, 0.115]

Provide Supplementary Table 4: EC50 of β-arrestin-1 recruitment to ACKR3, U87 cells for all items below, preserving their order.
1. YGGAMRRV-NH2 [adrenorphin-derived peptide YGGAMRRV]
2. YRGFMRRV-NH2 [adrenorphin-derived peptide YRGFMRRV]
3. YGGWMRRV-NH2 [adrenorphin-derived peptide YGGWMRRV]

1: 10; 2: 5; 3: 0.0703

Items follow; give Supplementary Table 4: EC50 of β-arrestin-1 recruitment to ACKR3, U87 cells for each.
1. LGGFMRRV-NH2 [adrenorphin-derived peptide LGGFMRRV]
2. YGGYMRRV-NH2 [adrenorphin-derived peptide YGGYMRRV]
3. YGSFMRRV-NH2 [adrenorphin-derived peptide YGSFMRRV]
4. YGGFNRRV-NH2 [adrenorphin-derived peptide YGGFNRRV]
5. YGGLMRRV-NH2 [adrenorphin-derived peptide YGGLMRRV]
6. FGGFMRRV-NH2 [adrenorphin-derived peptide FGGFMRRV]

1: 0.261; 2: 5; 3: 0.668; 4: 10; 5: 10; 6: 0.00933
